microsomal CLint values, listed per item
# assay-summary: Clearance in rat microsomes
# Assay type: ADME, Microsome
Field format: number, assumed µL/min/mg, no unit text.

# compound-smiles, microsomal CLint, µL/min/mg
records = [
    ("CC[C@H](C)[C@@H](NC(=O)[C@@H](NC(=O)[C@H](CCC(=O)O)NC(=O)[C@H](Cc1ccccc1)NC(=O)[C@@H](CCN)NC(=O)[C@H](CCN)NC(=O)[C@H](CO)NC(=O)[C@@H](Cc1c[nH]c2ccccc12)NC(=O)[C@@H](CO)NC(=O)CNC(=O)[C@@H](CCN)NC(=O)[C@H](NC(=O)[C@H](C)N)C(C)C)C(C)C)C(=O)N[C@@H](C)C(=O)O", 19),
]

Please turn your attention to the following entry.
Req: // Input: CC[C@H](C)[C@@H](NC(=O)[C@@H](NC(=O)[C@H](CCC(=O)O)NC(=O)[C@H](Cc1ccccc1)NC(=O)[C@@H](CCN)NC(=O)[C@H](CCN)NC(=O)[C@H](CO)NC(=O)[C@@H](Cc1c[nH]c2ccccc12)NC(=O)[C@@H](CO)NC(=O)CNC(=O)[C@@H](CCN)NC(=O)[C@H](N)C(C)C)C(C)C)C(=O)N[C@@H](C)C(=O)O . Output its microsomal CLint only.
Resp: 108
